pIC50: −log10 of the molar value.
Endpoint summary: pIC50, system: JNK3 (Homo sapiens, UniProt P53779), multiple sources combined.

Study these solved cases before continuing.
# COMPOUND_STRUCTURE, ASSAY_SYSTEM, pIC50
measured = [
    ("O=C(Cn1c(=O)ccn2nccc12)Nc1scc(Br)c1-c1ncn[nH]1", "JNK3 (Homo sapiens, UniProt P53779)", "> 7.00"),
    ("CCNC(=O)c1cc(-n2ncc3cc(Oc4ccccc4Cl)cnc32)cs1", "JNK3 (Homo sapiens, UniProt P53779)", "> 6.70"),
    ("O=C(c1c(F)ccc(NCc2ccccc2)c1F)c1c[nH]c2ncc(-c3cccnc3)cc12", "JNK3 (Homo sapiens, UniProt P53779)", "≥ 5.00"),
]

## Task Param readout= pIC50; system= JNK3 (Homo sapiens, UniProt P53779); entry= O=C(c1nc(-c2c[nH]c3ncc([C@H]4CC[C@H](N5CCOCC5)CC4)cc23)cs1)N1CCOCC1 ; returns value.
## Result 6.79

## Task What value of pIC50 on JNK3 (Homo sapiens, UniProt P53779) does N#Cc1csc(NC(=O)Cn2c(=O)ccc3cc(C(F)(F)F)ccc32)c1-c1cscn1 have?
## Result > 7.00

## Task Which pIC50 is reported with JNK3 (Homo sapiens, UniProt P53779) for this entry: O=C(NCc1ccc(S(=O)(=O)N2CCC(Nc3ccc(Cl)cc3)CC2)s1)c1ccc(Cl)cc1 ?
## Result 6.40

## Task What measured pIC50 is associated with CCCNc1nccc(-c2c(-c3ccc(F)cc3)nc3n2[C@H](COc2ccc4ccccc4n2)CC3)n1 on JNK3 (Homo sapiens, UniProt P53779)?
## Result 7.06

## Task API: value(readout=pIC50, system=JNK3 (Homo sapiens, UniProt P53779)) for record CCCCNC(=O)Nc1ccc(F)c(C(=O)c2c[nH]c3ncc(OC)cc23)c1F
## Result ≥ 5.00
